src = patent US20240343740A1

- assay.system: UniProtKB P43220
- protocol: GLP-1R CHO cell β-arrestin recruitment assay (PathHunter)
- Format: cell-based
- Parameters: host or cells: CHO-K1
- measurement.context: CHO-K1 cells expressing Pro-Link-tagged Human GLP-1R and enzyme-acceptor-tagged β-arrestin-2; read-out: EC50 nM (SEM, n), hGLP1R induced β-Arrestin-2 recruitment relative EC50
- Sequence (P43220 24-463): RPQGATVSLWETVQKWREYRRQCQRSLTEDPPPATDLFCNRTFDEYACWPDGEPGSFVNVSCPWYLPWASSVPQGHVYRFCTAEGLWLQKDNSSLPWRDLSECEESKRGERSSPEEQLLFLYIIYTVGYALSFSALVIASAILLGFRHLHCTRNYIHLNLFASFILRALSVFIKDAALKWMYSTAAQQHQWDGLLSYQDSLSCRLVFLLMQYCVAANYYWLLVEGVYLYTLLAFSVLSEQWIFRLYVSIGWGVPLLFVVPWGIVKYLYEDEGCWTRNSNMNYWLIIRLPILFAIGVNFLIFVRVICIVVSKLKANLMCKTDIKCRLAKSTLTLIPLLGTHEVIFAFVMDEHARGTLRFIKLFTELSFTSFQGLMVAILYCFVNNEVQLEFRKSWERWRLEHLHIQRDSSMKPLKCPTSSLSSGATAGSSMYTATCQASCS
- Sequence (P32121 whole entry partner): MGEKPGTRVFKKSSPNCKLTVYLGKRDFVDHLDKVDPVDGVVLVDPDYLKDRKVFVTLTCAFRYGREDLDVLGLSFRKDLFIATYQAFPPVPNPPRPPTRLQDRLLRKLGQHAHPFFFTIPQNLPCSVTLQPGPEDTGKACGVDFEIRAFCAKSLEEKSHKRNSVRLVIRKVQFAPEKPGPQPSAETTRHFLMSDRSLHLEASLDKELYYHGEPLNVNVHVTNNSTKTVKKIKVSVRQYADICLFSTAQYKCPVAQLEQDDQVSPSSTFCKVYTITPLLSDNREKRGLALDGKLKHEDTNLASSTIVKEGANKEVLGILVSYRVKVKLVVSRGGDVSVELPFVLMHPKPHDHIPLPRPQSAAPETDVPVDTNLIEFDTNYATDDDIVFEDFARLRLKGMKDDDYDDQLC
measurement.name: EC50 (nM)

1 = N#Cc1ccc2c(c1)CCCOc1cc(c(F)cc1Cc1nc3ccc(C(=O)O)cc3n1C[C@@H]1CCO1)-c1cccc(n1)OC2 [Example 1]
2 = O=C(O)c1ccc2nc(Cc3ccc4cc3OCCCc3cc(Cl)ccc3COc3cccc-4n3)n(C[C@@H]3CCO3)c2c1 [Example 3]
3 = N#Cc1ccc2c(c1)CCCOc1cc(c(F)cc1Cc1nc3c(F)cc(C(=O)O)cc3n1C[C@@H]1CCO1)-c1cccc(n1)OC2 [Example 2]
Problem: Sort the entries above numerically by EC50, high end first. // rank by listing labels in the order requested
Solution: 2, 1, 3

* * *

- assay.system: human GLP-1R (Homo sapiens)
- protocol: Human GLP-1 Receptor HEK293 cell cAMP assay, 581 fmol/mg GLP-1R expression density
- Type: cell-based
- Parameters: expressed in transfected cells; host or cells: HEK293 clonal cell line
- measurement.context: HEK293 cell line with 581 fmol/mg expression density of GLP-1R; percent of maximal response to GLP-1(7-36)NH2; arithmetic mean; read-out: Emax % (SEM, n), intracellular cAMP response
- Sequence (P43220 24-463): as the sequence (P43220 24-463) above
measurement.name: Emax (%)

>  <smiles.data>
COCCOc1cc(C(=O)O)cc2c1nc(Cc1ccc3cc1COCCc1cc(C#N)ccc1COc1cccc-3n1)n2C[C@@H]1CCO1

>  <Emax / %>
110

$$$$
>  <smiles.data>
COc1cc(C(=O)O)cc2c1nc(Cc1cc(C)c3cc1OCCCc1cc(F)ccc1COc1cccc-3n1)n2C[C@@H]1CCO1

>  <Emax / %>
112

$$$$
>  <smiles.data>
COCCOc1cc(C(=O)O)cc2c1nc(Cc1ccc3cc1COCC(F)(F)c1cc(C#N)ccc1COc1cccc-3n1)n2C[C@@H]1CCO1

>  <Emax / %>
115

$$$$
>  <smiles.data>
CCn1cncc1Cn1c(Cc2ccc3cc2OCCCc2cc(C#N)ccc2COc2cccc-3n2)nc2ccc(C(=O)O)cc21

>  <Emax / %>
92

$$$$
>  <smiles.data>
COc1cc(C(=O)O)cc2c1nc(Cc1ccc3cc1OCCCc1cc(C#N)ccc1COc1cccc-3n1)n2Cc1ncco1

>  <Emax / %>
106

$$$$
>  <smiles.data>
O=C(O)c1ccc2nc(Cc3ccc4cc3OCCCc3cc(-c5ccc(CO)cc5)ccc3COc3cccc-4n3)n(C[C@@H]3CCO3)c2c1

>  <Emax / %>
99

$$$$
>  <smiles.data>
N#Cc1ccc2cc1CCOCc1cc(ccc1Cc1nc3ccc(C(=O)O)cc3n1C[C@@H]1CCO1)-c1cccc(n1)OC2

>  <Emax / %>
111

$$$$
>  <smiles.data>
Cn1cc(-c2ccc3c(c2)CCCOc2cc(ccc2Cc2nc4ccc(C(=O)O)cc4n2C[C@@H]2CCO2)-c2cccc(n2)OC3)cn1

>  <Emax / %>
110

$$$$
>  <smiles.data>
N#Cc1ccc2cc1CCCOc1cc(c(F)cc1Cc1nc3ccc(C(=O)O)cc3n1C[C@@H]1CCO1)-c1cccc(n1)OC2

>  <Emax / %>
107

$$$$
>  <smiles.data>
COCCOc1cc(C(=O)O)cc2c1nc(Cc1cc(F)c3cc1COCCc1cc(ccc1C#N)COc1cccc-3n1)n2C[C@@H]1CCO1

>  <Emax / %>
109

$$$$
>  <smiles.data>
CN(C)CCOc1cc(C(=O)O)cc2c1nc(Cc1ccc3cc1COCCc1cc(Cl)ccc1COc1cccc-3n1)n2C[C@@H]1CCO1

>  <Emax / %>
85

$$$$
>  <smiles.data>
COCCOc1cc(C(=O)O)cc2c1nc(Cc1ccc3cc1OCCCc1cc(C#N)ccc1COc1cccc-3n1)n2C[C@@H]1CCO1

>  <Emax / %>
116

$$$$
>  <smiles.data>
O=C(O)c1ccc2nc(Cc3ccc4cc3OCCCc3cc(-n5ccc(=O)cc5)ccc3COc3cccc-4n3)n(C[C@@H]3CCO3)c2c1

>  <Emax / %>
92.1

$$$$

* * *

- assay.system: human GLP-1R (Homo sapiens)
- protocol: Human GLP-1 Receptor HEK293 cell cAMP assay, 104 fmol/mg GLP-1R expression density
- Type: cell-based
- Design: expressed in transfected cells; host or cells: HEK293 clonal cell line
- measurement.context: HEK293 cell line with 104 fmol/mg expression density of GLP-1R; percent of maximal response to GLP-1(7-36)NH2; arithmetic mean; read-out: Emax % (SEM, n), intracellular cAMP response
measurement.name: Emax (%)

Consider the reported Emax for these compounds:
>  <smiles.data>
COc1cc(-c2ccc3c(c2)CCCOc2cc(ccc2Cc2nc4ccc(C(=O)O)cc4n2C[C@@H]2CCO2)-c2cccc(n2)OC3)ccn1

>  <units.label>
%

>  <Emax>
82.3

$$$$
>  <smiles.data>
O=C(O)c1ccc2nc(Cc3ccc4cc3OCCCc3cc(-n5ccc(=O)cc5)ccc3COc3cccc-4n3)n(C[C@@H]3CCO3)c2c1

>  <units.label>
%

>  <Emax>
73.3

$$$$
>  <smiles.data>
O=C(O)c1ccc2nc(Cc3ccc4cc3OCCCc3cc(-n5ccc(=O)c(F)c5)ccc3COc3cccc-4n3)n(C[C@@H]3CCO3)c2c1

>  <units.label>
%

>  <Emax>
52.1

$$$$
>  <smiles.data>
CN(C)CCOc1cc(C(=O)O)cc2c1nc(Cc1ccc3cc1COCCc1cc(Cl)ccc1COc1cccc-3n1)n2C[C@@H]1CCO1

>  <units.label>
%

>  <Emax>
41.7

$$$$

I = CNCCOc1cc(C(=O)O)cc2c1nc(Cc1ccc3cc1COCCc1cc(Cl)ccc1COc1cccc-3n1)n2C[C@@H]1CCO1
II = N#Cc1ccc2c(c1)CCOCc1cc(ccc1Cc1nc3c(F)cc(C(=O)O)cc3n1C[C@@H]1CCO1)-c1cccc(n1)OC2
Problem: Lab note: check whether I or II has the lower measured Emax. Return value: the label identifying the chosen record.
Solution: I

* * *

- assay.system: human GLP-1R (Homo sapiens, UniProt P43220)
- protocol: Human GLP-1 Receptor HEK293 cell cAMP assay, 104 fmol/mg GLP-1R expression density
- Format: cell-based
- Set-up: expressed in transfected cells; host or cells: HEK293 clonal cell line
- measurement.context: HEK293 cell line with 104 fmol/mg expression density of GLP-1R; percent of maximal response to GLP-1(7-36)NH2; arithmetic mean; read-out: Emax % (SEM, n), intracellular cAMP response
measurement.name: Emax (%)

>  <smiles.data>
O=C(O)c1ccc2nc(Cc3ccc4cc3OCCCc3cc(-c5cn[nH]c5)ccc3COc3cccc-4n3)n(C[C@@H]3CCO3)c2c1

>  <Emax, %>
77.1

$$$$
>  <smiles.data>
N#Cc1ccc2c(c1)CCCOc1cc(ccc1Cc1nc3ccc(C(=O)O)nc3n1C[C@@H]1CCO1)-c1cccc(n1)OC2

>  <Emax, %>
89.1

$$$$
>  <smiles.data>
N#Cc1ccc2c(c1)OCCOc1cc(c(F)cc1Cc1nc3ccc(C(=O)O)cc3n1C[C@@H]1CCO1)-c1cccc(n1)OC2

>  <Emax, %>
74.7

$$$$
>  <smiles.data>
COCCOc1cc(C(=O)O)cc2c1nc(Cc1ccc3cc1OCCCc1cc(C#N)ccc1COc1cccc-3n1)n2C[C@@H]1CCO1

>  <Emax, %>
89.6

$$$$
>  <smiles.data>
N#Cc1ccc2c(c1)CCOc1cc(c(F)cc1Cc1nc3ccc(C(=O)O)cc3n1C[C@@H]1CCO1)-c1cccc(n1)OC2

>  <Emax, %>
89.9

$$$$
>  <smiles.data>
COCCOc1cc(C(=O)O)cc2c1nc(Cc1cc(F)c3cc1COCCc1cc(C#N)cc(F)c1COc1cccc-3n1)n2C[C@@H]1CCO1

>  <Emax, %>
95

$$$$

* * *

- assay.system: UniProt:P43220
- protocol: Human GLP-1 Receptor HEK293 cell cAMP assay, 581 fmol/mg GLP-1R expression density
- Format: cell-based
- Set-up: expressed in transfected cells; host or cells: HEK293 clonal cell line
- measurement.context: HEK293 cell line with 581 fmol/mg expression density of GLP-1R; geometric mean; read-out: EC50 nM (SEM, n), intracellular cAMP response, relative EC50
measurement.name: EC50 (nM)

>  <smiles.data>
N#Cc1ccc2c(c1)CCCOc1cc(ccc1Cc1nc3ccc(C(=O)O)cc3n1C[C@@H]1CCO1)-c1cccc(n1)OC2

>  <units.label>
nM

>  <EC50>
90.6

$$$$
>  <smiles.data>
O=C(O)c1ccc2nc(Cc3ccc4cc3OCCCc3cc(-c5ccc(CO)cc5)ccc3COc3cccc-4n3)n(C[C@@H]3CCO3)c2c1

>  <units.label>
nM

>  <EC50>
244

$$$$
>  <smiles.data>
CCn1cncc1Cn1c(Cc2ccc3cc2OCCCc2cc(C#N)ccc2COc2cccc-3n2)nc2ccc(C(=O)O)cc21

>  <units.label>
nM

>  <EC50>
35

$$$$

I = N#Cc1ccc2cc1CCOCc1cc(ccc1Cc1nc3ccc(C(=O)O)cc3n1C[C@@H]1CCO1)-c1cccc(n1)OC2
II = COCCOc1cc(C(=O)O)cc2c1nc(Cc1cc(F)c3cc1COCCc1cc(Cl)cc(F)c1COc1cccc-3n1)n2C[C@@H]1CCO1
Problem: Determine, for I and II , which has the greater value of EC50. Return value: the label identifying the chosen record.
Solution: I

1 = O=C(O)c1ccc2nc(Cc3ccc4cc3OCCCc3cc(Cl)ccc3COc3cccc-4n3)n(C[C@@H]3CCO3)c2c1
2 = CN(C)C(=O)c1ccc(-c2ccc3c(c2)CCCOc2cc(ccc2Cc2nc4ccc(C(=O)O)cc4n2C[C@@H]2CCO2)-c2cccc(n2)OC3)cc1
Problem: Determine, for 1 and 2 , which has the greater value of EC50. Return value: the label identifying the chosen record.
Solution: 2
(2: 193 nM, 1: 44.1 nM)
